Can you tell me Var.EC50/HuIgG1 EC50 for the items I'm about to list?
Assay System: T1, rhesus CD11a (rhesus) (UniProt H9Z8N3)
T1 sequence: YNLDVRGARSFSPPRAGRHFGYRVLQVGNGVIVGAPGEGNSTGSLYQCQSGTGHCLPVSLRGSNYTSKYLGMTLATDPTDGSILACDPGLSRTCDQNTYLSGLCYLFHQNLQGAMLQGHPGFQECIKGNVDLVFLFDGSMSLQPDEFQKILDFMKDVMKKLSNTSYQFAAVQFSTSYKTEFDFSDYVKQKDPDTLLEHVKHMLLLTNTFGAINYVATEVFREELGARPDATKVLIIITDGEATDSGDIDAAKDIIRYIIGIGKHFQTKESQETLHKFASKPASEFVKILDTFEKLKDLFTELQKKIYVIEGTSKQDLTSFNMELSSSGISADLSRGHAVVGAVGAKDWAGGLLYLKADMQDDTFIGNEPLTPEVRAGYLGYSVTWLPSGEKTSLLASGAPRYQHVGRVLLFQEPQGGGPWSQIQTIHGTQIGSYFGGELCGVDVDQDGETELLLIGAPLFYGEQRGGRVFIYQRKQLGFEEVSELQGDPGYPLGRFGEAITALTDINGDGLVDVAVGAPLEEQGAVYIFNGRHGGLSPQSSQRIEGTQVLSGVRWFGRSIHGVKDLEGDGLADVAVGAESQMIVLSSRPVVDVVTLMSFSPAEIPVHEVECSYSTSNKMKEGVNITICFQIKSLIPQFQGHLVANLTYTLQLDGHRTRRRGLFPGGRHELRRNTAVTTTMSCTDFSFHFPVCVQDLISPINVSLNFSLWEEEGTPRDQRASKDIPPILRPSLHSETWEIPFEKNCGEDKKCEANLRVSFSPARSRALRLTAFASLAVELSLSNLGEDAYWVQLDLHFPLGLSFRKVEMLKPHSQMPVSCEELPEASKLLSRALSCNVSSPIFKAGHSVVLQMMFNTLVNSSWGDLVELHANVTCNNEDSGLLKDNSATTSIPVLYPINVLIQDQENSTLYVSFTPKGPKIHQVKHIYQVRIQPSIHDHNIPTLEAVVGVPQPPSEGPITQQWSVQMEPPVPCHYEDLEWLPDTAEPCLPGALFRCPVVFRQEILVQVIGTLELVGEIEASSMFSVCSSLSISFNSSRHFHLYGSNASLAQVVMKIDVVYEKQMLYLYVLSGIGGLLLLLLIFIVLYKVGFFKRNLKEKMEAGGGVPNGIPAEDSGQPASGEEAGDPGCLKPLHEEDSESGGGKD
Assay Text: binding to rhesus peripheral blood lymphocytes
// no unit, no text: just the number

Asked: Tell me the measured Var.EC50/HuIgG1 EC50 of H2A1 variant IgG1 (antibody, V domains shown) VH: EVQLVESGGGLVQPGGSLRLSCAASGYSFTGHWMNWVRQAPGKGLEWVGMIAPADSETRYNQKFKDRFTISVDKSKNTLYLQMNSLRAEDTAVYYCARGIYFYGTTYFDYWGQGTLVTVSS VL: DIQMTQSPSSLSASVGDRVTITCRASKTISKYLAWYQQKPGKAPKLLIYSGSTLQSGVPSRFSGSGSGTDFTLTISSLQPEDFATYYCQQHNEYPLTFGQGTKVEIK , please.
Given back: 0.013

Asked: Tell me the measured Var.EC50/HuIgG1 EC50 of GluH56Ala variant IgG1 (antibody, V domains shown) VH: EVQLVESGGGLVQPGGSLRLSCAASGYSFTGHWMNWVRQAPGKGLEWVGMIHPSDSATRYNQKFKDRFTISVDKSKNTLYLQMNSLRAEDTAVYYCARGIYFYGTTYFDYWGQGTLVTVSS VL: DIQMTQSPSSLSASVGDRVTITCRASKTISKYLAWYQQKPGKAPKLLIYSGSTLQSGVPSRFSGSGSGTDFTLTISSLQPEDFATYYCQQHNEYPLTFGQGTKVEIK , please.
Given back: 0.3

Asked: Tell me the measured Var.EC50/HuIgG1 EC50 of GlyH31Ala variant IgG1 (antibody, V domains shown) VH: EVQLVESGGGLVQPGGSLRLSCAASGYSFTAHWMNWVRQAPGKGLEWVGMIHPSDSETRYNQKFKDRFTISVDKSKNTLYLQMNSLRAEDTAVYYCARGIYFYGTTYFDYWGQGTLVTVSS VL: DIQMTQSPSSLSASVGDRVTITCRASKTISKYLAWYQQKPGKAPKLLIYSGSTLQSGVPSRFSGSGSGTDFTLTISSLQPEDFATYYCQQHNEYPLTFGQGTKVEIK , please.
Given back: 2.4
